Measured values drawn from PubChem BioAssay for this set.

Please provide measured z-score for the entries that follow.
Test: modulators of HCV replicon luciferase signal, primary screen, HCV replication inhibitor project, Huh7 cells, luciferase reporter (AID 1109);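 also: huh7 hepatoma cells harbouring a luciferase neomycin HCV replicon reporter; luciferase luminescence as measure of HCV replicon replication; test concentration not given here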
Conditions: 48 h, higher = more signal

Example results:
compound: [N-]=[N+]=NCc1ccccc1C[C@]1(C(=O)NCc2ccccc2)N=C(c2ccc(OCCCO)cc2)O[C@H]1c1ccccc1N=[N+]=[N-]
testReadout: z-score
recordedMeasurement: -2.05
--
compound: CCOC(=O)[C@H](Cc1ccccc1)NC(=O)CCC1CC(OC(=O)NCCc2ccc(F)cc2)CC2(CCCC(COC(=O)NCC(c3ccccc3)c3ccccc3)O2)O1 (some centres undefined)
testReadout: z-score
recordedMeasurement: 0.0395
--
compound: CCN1C(=O)[C@H]2[C@H]3[C@H](O)[C@H](O)CC(=NOCc4ccccc4)[C@@H]3CC[C@H]2C1=O
testReadout: z-score
recordedMeasurement: -0.0462

Next compound, please.
QUERY: Recorded z-score of CC(C)(C)OC(=O)CC[C@]1(C(N)=O)COC(c2ccc(OCCCO)cc2)=N1 , please.
RESULT: -0.518

* * *

Tested on: wheat germ agglutinin (Triticum aestivum), Alexa647-labelled
Assay: wheat germ agglutinin binders on compound microarrays, profiling panel, artefact control for SMM control-protein annotation, biochemical, small-molecule microarray, 635/667 nm fluorescence (AID 1140);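 also: score merges 667 nm feature emission with signal to noise over triplicate slides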
Conditions: WGA-A647 binding, 635 nm fluorescence, higher = more signal
Please provide measured composite z-score for the entries that follow.
One number for each entry.

molecule: COC(=O)[C@@H]1CC[C@H](C)[C@@H](c2ccc(C)cc2)N1C(=O)c1ccc(C=NOC(C)CN2CCCCc3nc(C)c(C)cc32)cc1 (stereo partly drawn)
testSystem: wheat germ agglutinin (Triticum aestivum), Alexa647-labelled
composite z-score: 0.0329
--
molecule: Cc1ccc(S[C@]2(C(=O)O)CC(=O)N(Cc3ccccc3)[C@@H]2c2ccc(CO)cc2I)cc1
testSystem: wheat germ agglutinin (Triticum aestivum), Alexa647-labelled
composite z-score: 0.189
--
molecule: C[C@@H]1CCC2C(=O)N(Cc3ccccc3)C[C@@H](O)CN2[C@H]1c1ccc(Br)cc1 (stereo partly drawn)
testSystem: wheat germ agglutinin (Triticum aestivum), Alexa647-labelled
composite z-score: 0.623
--
molecule: O=C1[C@H]2[C@H]3[C@H](O)[C@H](O)CC(=NO[C@@H]4O[C@H](CO)[C@@H](O)[C@H](O)[C@H]4O)[C@H]3CC[C@H]2C(=O)N1Cc1ccccc1
testSystem: wheat germ agglutinin (Triticum aestivum), Alexa647-labelled
composite z-score: -0.0816
--
molecule: O=C1[C@H]2[C@H]3[C@H](O)[C@H](O)CC(=NOC[C@@H](O)COCc4ccco4)[C@H]3CC[C@H]2C(=O)N1Cc1ccc2c(c1)OCO2
testSystem: wheat germ agglutinin (Triticum aestivum), Alexa647-labelled
composite z-score: -0.186
--
molecule: C[C@@H]1C=CCC(=O)OC[C@H](C)C(=O)N2CCC[C@H]2C(=O)OC1
testSystem: wheat germ agglutinin (Triticum aestivum), Alexa647-labelled
composite z-score: -0.273
--
molecule: C=COC[C@H]1CN2[C@@H](CC[C@@H](C)[C@@H]2c2ccc(Br)cc2)C(=O)O1
testSystem: wheat germ agglutinin (Triticum aestivum), Alexa647-labelled
composite z-score: 0.276

Next molecule, please.
QUERY: Recorded composite z-score of CO[C@@H]1COC(=O)CCC[C@@H](C)[C@H](OC)COC(=O)CCC[C@H]1C , please.
RESULT: -0.261
